assay: AUC (0 to infinity) in male Sprague-Dawley rat at 2 mg/kg, iv measured upto 24 hrs by LC-MS/MS analysis; assay type: ADME, organism-based; parameters: time < 24 hrs, dose 2 mg/kg, route iv; settings: in vivo
Readout: AUC(0-inf) (ng·h/mL)
Provide the reading as a plain figure in ng·h/mL.

(Q) AUC(0-inf) lookup needed for `N#Cc1c(N)nc(N)nc1N1CC2(CC2)C[C@H]1c1nc2cccc(Cl)c2c(=O)n1Cc1ccc(C(=O)NO)s1` , thanks.
(A) 632

====

Target: UniProt Q9UBN7
Sequence (Q9UBN7 whole entry): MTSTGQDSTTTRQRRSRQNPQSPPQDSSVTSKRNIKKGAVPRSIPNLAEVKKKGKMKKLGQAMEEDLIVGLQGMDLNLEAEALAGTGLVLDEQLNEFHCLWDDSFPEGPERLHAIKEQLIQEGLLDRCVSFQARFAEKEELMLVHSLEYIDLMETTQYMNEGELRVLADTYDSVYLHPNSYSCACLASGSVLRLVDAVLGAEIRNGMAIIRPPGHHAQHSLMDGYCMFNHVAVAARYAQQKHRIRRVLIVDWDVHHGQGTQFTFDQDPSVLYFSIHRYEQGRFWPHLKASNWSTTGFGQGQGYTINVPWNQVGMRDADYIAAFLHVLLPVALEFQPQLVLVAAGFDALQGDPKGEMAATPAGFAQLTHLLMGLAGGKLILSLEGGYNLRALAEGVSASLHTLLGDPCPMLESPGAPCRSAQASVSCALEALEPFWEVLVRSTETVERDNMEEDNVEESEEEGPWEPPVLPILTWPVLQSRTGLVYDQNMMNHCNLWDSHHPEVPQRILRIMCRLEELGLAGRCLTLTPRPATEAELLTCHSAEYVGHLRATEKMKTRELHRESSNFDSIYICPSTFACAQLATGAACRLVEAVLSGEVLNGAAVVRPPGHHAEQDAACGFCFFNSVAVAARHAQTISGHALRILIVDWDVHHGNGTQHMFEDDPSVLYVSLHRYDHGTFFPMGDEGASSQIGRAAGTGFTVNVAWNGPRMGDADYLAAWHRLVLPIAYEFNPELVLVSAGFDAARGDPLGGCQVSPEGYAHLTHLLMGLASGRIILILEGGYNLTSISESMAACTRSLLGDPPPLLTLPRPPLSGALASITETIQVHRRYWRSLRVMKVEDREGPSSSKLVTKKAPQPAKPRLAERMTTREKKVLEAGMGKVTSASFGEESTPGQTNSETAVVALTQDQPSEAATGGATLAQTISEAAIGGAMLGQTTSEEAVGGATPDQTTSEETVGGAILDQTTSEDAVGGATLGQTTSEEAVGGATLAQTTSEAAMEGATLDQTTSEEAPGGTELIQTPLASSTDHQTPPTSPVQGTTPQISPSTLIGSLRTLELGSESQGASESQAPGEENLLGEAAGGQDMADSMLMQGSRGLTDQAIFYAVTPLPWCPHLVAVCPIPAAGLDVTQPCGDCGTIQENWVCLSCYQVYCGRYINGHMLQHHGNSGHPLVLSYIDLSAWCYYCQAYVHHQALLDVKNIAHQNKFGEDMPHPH
The following compounds are listed with their measured pIC50 values.
Units for pIC50: none; it is -log10 of a concentration expressed in mol/L.

Compound Smiles: N#Cc1c(N)nc(N)nc1N1CC2(CC2)C[C@H]1c1nc(NCc2ccc(C(=O)NO)cc2)c2c(Cl)cccc2n1
pIC50: 6.40
//
Compound Smiles: CC[C@H](Nc1nc(N)nc(N)c1C#N)c1nc2cccc(Cl)c2c(=O)n1Cc1ccc(C(=O)NO)s1
pIC50: 7.35
//
Compound Smiles: Cn1c([C@@H]2C[C@@H](OCc3ccc(C(=O)NO)s3)CN2c2nc(N)nc(N)c2C#N)nc2cccc(Cl)c2c1=O
pIC50: 7.89

Here's the next entry for you.
(Q) pIC50 lookup needed for `N#Cc1c(N)nc(N)nc1N1CCC[C@H]1c1nc(NCc2ccc(C(=O)NO)cc2)c2c(Cl)cccc2n1` , thanks.
(A) 6.57
